Biological target: Disintegrin and metalloproteinase domain-containing protein 17 (Sus scrofa, UniProt O77636)
Sequence (O77636 whole entry, the tested form may be a part): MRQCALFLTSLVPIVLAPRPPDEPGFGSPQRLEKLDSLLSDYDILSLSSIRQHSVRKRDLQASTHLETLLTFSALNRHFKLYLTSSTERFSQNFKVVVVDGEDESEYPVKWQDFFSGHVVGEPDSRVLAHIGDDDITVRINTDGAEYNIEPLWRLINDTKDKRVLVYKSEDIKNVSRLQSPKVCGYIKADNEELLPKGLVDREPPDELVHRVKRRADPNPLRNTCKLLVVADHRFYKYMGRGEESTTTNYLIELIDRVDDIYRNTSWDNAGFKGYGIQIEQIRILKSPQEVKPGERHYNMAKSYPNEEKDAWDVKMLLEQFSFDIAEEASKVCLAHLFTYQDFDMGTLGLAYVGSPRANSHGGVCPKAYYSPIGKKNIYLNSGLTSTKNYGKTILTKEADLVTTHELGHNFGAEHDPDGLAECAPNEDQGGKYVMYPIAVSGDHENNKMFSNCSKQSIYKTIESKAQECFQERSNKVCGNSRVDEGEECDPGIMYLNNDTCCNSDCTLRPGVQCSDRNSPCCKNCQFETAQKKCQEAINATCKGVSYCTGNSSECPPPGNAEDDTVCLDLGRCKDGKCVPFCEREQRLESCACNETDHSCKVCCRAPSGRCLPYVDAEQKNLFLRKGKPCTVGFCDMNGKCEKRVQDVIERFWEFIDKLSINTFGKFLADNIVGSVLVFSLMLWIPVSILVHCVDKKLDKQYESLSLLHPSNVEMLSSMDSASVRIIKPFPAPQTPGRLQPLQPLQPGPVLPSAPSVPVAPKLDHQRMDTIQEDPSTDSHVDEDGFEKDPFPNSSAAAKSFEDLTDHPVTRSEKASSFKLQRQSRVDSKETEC
VALUE TYPE: log10 IC50 (log10 of the value in nM)
Record value = log10 of IC50 given in nM.

// recorded log10 IC50 for "CCCC(=O)N1CC[C@H](C(=O)Nc2ccc(OCc3cc(C)nc4ccccc34)cc2)[C@@H](C(=O)NO)C1" : -0.59

The reported log10 IC50 of the molecule "CC(=O)N1CC[C@H](C(=O)Nc2ccc(COc3ccnc4ccccc34)cc2)[C@@H](C(=O)NO)C1" was 0.00

Quick note, log10 IC50 for "Cc1cc(COc2ccc(NC(=O)[C@H]3CCN(S(=O)(=O)c4cn(C)cn4)C[C@@H]3C(=O)NO)cc2)c2ccccc2n1" landed at -0.51

Lab book: log10 IC50 of "Cc1cc(COc2ccc(NC(=O)[C@H]3CCN(C(=O)C4CC4)C[C@@H]3C(=O)NO)cc2)c2ccccc2n1" noted as -0.35

Short answer for "CCN1CCC[C@H](C(=O)NO)[C@H]1C(=O)Nc1ccc(OCc2cc(C)nc3ccccc23)cc1" : log10 IC50 was 0.90

// field: log10 IC50; key: "O=C(NO)[C@H]1CN(C(=O)C2CC2)CC[C@@H]1C(=O)Nc1ccc(COc2ccnc3ccccc23)cc1" ; value = 0.30

The value of log10 IC50 measured for the molecule "Cc1cc(COc2ccc(NC(=O)[C@H]3CNCC[C@@H]3C(=O)NO)cc2)c2ccccc2n1" turned out to be 0.48

====

pKi: −log10 of the molar value.
VALUE TYPE: pKi

Matrix metalloproteinase-9 (Homo sapiens, UniProt P14780) assay, compound "Cc1cc(COc2ccc(NC(=O)[C@H]3CCN(C(=O)C4CC4)C[C@@H]3C(=O)NO)cc2)c2ccccc2n1" , recorded pKi = < 5.78

Log: Matrix metalloproteinase-9 (Homo sapiens, UniProt P14780), compound "Cc1cc(COc2ccc(NC(=O)[C@H]3CCN(C(=O)NC(C)(C)C)C[C@@H]3C(=O)NO)cc2)c2ccccc2n1" , pKi = < 5.67

Reported Matrix metalloproteinase-9 (Homo sapiens, UniProt P14780) pKi for item "Cc1cc(COc2ccc(NC(=O)[C@@H]3[C@@H](C(=O)NO)CCCN3Cc3nccs3)cc2)c2ccccc2n1" was < 5.67

With Matrix metalloproteinase-9 (Homo sapiens, UniProt P14780) as the test system, "O=C(NO)[C@H]1CN(C(=O)C2CC2)CC[C@@H]1C(=O)Nc1ccc(Oc2ccnc3ccccc23)cc1" showed pKi of < 5.67

====

For reference, pKi measured on Matrix metalloproteinase-9 (Homo sapiens, UniProt P14780):
pKi: −log10 of the molar value.

Notebook: "Cc1cc(COc2ccc(NC(=O)[C@H]3CCN(C(=O)c4ccco4)C[C@@H]3C(=O)NO)cc2)c2ccccc2n1" , pKi read as < 6.33

Item: "CCN1CCC[C@H](C(=O)NO)[C@H]1C(=O)Nc1ccc(OCc2cc(C)nc3ccccc23)cc1" | pKi: < 5.67

Per the record, "O=C(NO)[C@H]1CN(C(=O)C2CC2)CC[C@@H]1C(=O)Nc1ccc(COc2ccnc3ccccc23)cc1" has pKi of < 5.67

The compound listed as "Cc1cc(COc2ccc(NC(=O)[C@H]3CN(Cc4nccs4)CC[C@@H]3C(=O)NO)cc2)c2ccccc2n1" has a reported pKi of < 5.67

// field: pKi; key: "Cc1cc(COc2ccc(NC(=O)[C@H]3CN(C(=O)c4ccco4)CC[C@@H]3C(=O)NO)cc2)c2ccccc2n1" ; value = < 5.67

Recorded pKi (compound "Cc1cc(COc2ccc(NC(=O)[C@H]3CNCC[C@@H]3C(=O)NO)cc2)c2ccccc2n1" ): < 5.67

Briefly, pKi measured for "Cc1cc(COc2ccc(NC(=O)[C@H]3CCN(C(=O)OCc4cscn4)C[C@@H]3C(=O)NO)cc2)c2ccccc2n1" : 6.53

get_value(item= "Cc1cc(COc2ccc(NC(=O)[C@H]3CN(CC4CC4)CC[C@@H]3C(=O)NO)cc2)c2ccccc2n1" , readout=pKi) returns < 5.67

====

Biological target: Disintegrin and metalloproteinase domain-containing protein 17 (Sus scrofa)
Assay: In vitro binding affinity against porcine TACE
VALUE TYPE: pIC50
// pIC50 here means minus log10 of the molar concentration (mol/L)

Measured pIC50 of "Cc1cc(COc2ccc(NC(=O)[C@@H]3[C@@H](C(=O)NO)CCCN3C)cc2)c2ccccc2n1" : 8.21

Sample "Cc1cc(COc2ccc(NC(=O)[C@H]3CCN(C(=O)OC4CC4)C[C@@H]3C(=O)NO)cc2)c2ccccc2n1" ; pIC50 observed: 9.08

Recorded pIC50 (molecule "Cc1cc(COc2ccc(NC(=O)[C@H]3CCN(C(C)C)C[C@@H]3C(=O)NO)cc2)c2ccccc2n1" ): 8.92

====

What Papp was measured for each of the following?
Test system: Caco-2
Conditions: Homo sapiens
Description: Caco-2 permeability was determined

Entry "Cc1cc(COc2ccc(NC(=O)[C@H]3CCN(C(=O)C(C)C)C[C@@H]3C(=O)NO)cc2)c2ccccc2n1" : Papp on Caco-2 = 0.3 10e-6 cm s-1

Case "Cc1cc(COc2ccc(NC(=O)[C@H]3CCN(C(=O)C4CC4)C[C@@H]3C(=O)NO)cc2)c2ccccc2n1" , Caco-2, Papp recorded as 0.2 10e-6 cm s-1

Form field, Papp with Caco-2, item "Cc1cc(COc2ccc(NC(=O)[C@H]3CCN(C(=O)c4ccco4)C[C@@H]3C(=O)NO)cc2)c2ccccc2n1" : 0.1 10e-6 cm s-1

The measured Papp that "Cc1cc(COc2ccc(NC(=O)[C@H]3CN(C(=O)c4ccco4)CC[C@@H]3C(=O)NO)cc2)c2ccccc2n1" showed for Caco-2 is 0.2 10e-6 cm s-1

====

Species: Homo sapiens
Assay: In vitro inhibition of TNF-alpha production was determined by using LPS-stimulated human whole blood assay (WBA)
Format: functional
VALUE TYPE: IC50 (nM)
Give a bare numeral; the unit nM is implied.

Entry "Cc1cc(COc2ccc(NC(=O)[C@H]3CN(C(=O)c4ccco4)CC[C@@H]3C(=O)NO)cc2)c2ccccc2n1" — recorded IC50 = 1300

// IC50 value for "Cc1cc(COc2ccc(NC(=O)[C@H]3CCN(C(=O)C4CC4)C[C@@H]3C(=O)NO)cc2)c2ccccc2n1" : 390

The measured IC50 associated with "Cc1cc(COc2ccc(NC(=O)[C@H]3CCN(S(=O)(=O)c4cn(C)cn4)C[C@@H]3C(=O)NO)cc2)c2ccccc2n1" reads 1500

Memo: "CC(=O)N1CC[C@H](C(=O)Nc2ccc(COc3ccnc4cc(C(F)(F)F)ccc34)cc2)[C@@H](C(=O)NO)C1" , reported IC50: 2600

====

Molecular target: Disintegrin and metalloproteinase domain-containing protein 17 (Sus scrofa)
Assay: In vitro binding affinity against porcine TACE
pIC50: −log10 of the molar value.
I would appreciate it if you labelled entries Criterion met when pIC50 is 9 or higher, otherwise Criterion not met.

## Input State whether the measured pIC50 reaches 9, counting equality as reaching it, for "Cc1cc(COc2ccc(NC(=O)[C@H]3CCN(C(=O)OCc4cscn4)C[C@@H]3C(=O)NO)cc2)c2ccccc2n1"
## Output Criterion met

## Input Determine whether this molecule has pIC50 no lower than 9: "CC(=O)N1CC[C@H](C(=O)Nc2ccc(COc3ccnc4cc(C(F)(F)F)ccc34)cc2)[C@@H](C(=O)NO)C1"
## Output Criterion not met

## Input Determine whether measured pIC50 meets or exceeds 9 for "O=C(NO)[C@H]1CN(C(=O)C2CC2)CC[C@@H]1C(=O)Nc1ccc(Oc2ccnc3ccccc23)cc1"
## Output Criterion not met

## Input Exam item: decide whether the reported pIC50 for "Cc1cc(COc2ccc(NC(=O)[C@H]3CCN(C(=O)NC(C)(C)C)C[C@@H]3C(=O)NO)cc2)c2ccccc2n1" is at least 9.
## Output Criterion met

## Input API: above_or_equal(metric=pIC50, cutoff=9) for item "COC(=O)N1CC[C@H](C(=O)Nc2ccc(OCc3cc(C)nc4ccccc34)cc2)[C@@H](C(=O)NO)C1"
## Output Criterion met

## Input // inclusive: pIC50 at least 9? input: "Cc1cc(COc2ccc(NC(=O)[C@H]3CCN(C(=O)c4ccco4)C[C@@H]3C(=O)NO)cc2)c2ccccc2n1"
## Output Criterion met

## Input Quick check, pIC50 >= 9? "Cc1cc(COc2ccc(NC(=O)[C@H]3CCN(S(C)(=O)=O)C[C@@H]3C(=O)NO)cc2)c2ccccc2n1"
## Output Criterion met

## Input Would you say "Cc1cc(COc2ccc(NC(=O)[C@H]3CCN(C(=O)OC(C)C)C[C@@H]3C(=O)NO)cc2)c2ccccc2n1" shows pIC50 at minimum 9?
## Output Criterion met

====

What follows is a collection of pIC50 values obtained with Disintegrin and metalloproteinase domain-containing protein 17 (Sus scrofa).
The read-out pIC50 is expressed as -log10 of concentration in moles per litre.

Memo: "Cc1cc(COc2ccc(NC(=O)[C@H]3CCNC[C@@H]3C(=O)NO)cc2)c2ccccc2n1" , reported pIC50: 8.82

Query "Cc1cc(COc2ccc(NC(=O)[C@H]3CN(C)CC[C@@H]3C(=O)NO)cc2)c2ccccc2n1" yields pIC50 of 8.30

Please fill in: pIC50 reported for "Cc1cc(COc2ccc(NC(=O)[C@@H]3[C@@H](C(=O)NO)CCCN3CC3CC3)cc2)c2ccccc2n1" = 9.00

Kindly note the recorded pIC50 for "Cc1cc(COc2ccc(NC(=O)[C@H]3CN(Cc4nccs4)CC[C@@H]3C(=O)NO)cc2)c2ccccc2n1" , which is 9.10

Short answer for "Cc1cc(COc2ccc(NC(=O)[C@H]3NCCC[C@@H]3C(=O)NO)cc2)c2ccccc2n1" : pIC50 was 9.00

For "Cc1cc(OCc2ccc(NC(=O)[C@H]3CCN(C(=O)c4ccco4)C[C@@H]3C(=O)NO)cc2)c2ccccc2n1" the compound record lists pIC50 as 8.52

Lab note: measured pIC50 of "Cc1cc(COc2ccc(NC(=O)[C@H]3CN(CC4CC4)CC[C@@H]3C(=O)NO)cc2)c2ccccc2n1" was 9.00

For record "Cc1cc(COc2ccc(NC(=O)[C@H]3CCN(C(=O)C(C)C)C[C@@H]3C(=O)NO)cc2)c2ccccc2n1" the listed pIC50 is 9.66
